Assay: probe aNOTCH2 binding on compound microarray – biochemical, small-molecule microarray, 635/667 nm fluorescence, primary screen (AID 1121);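 further: score merges feature fluorescence read at 667 nm with its signal to noise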
Conditions: higher = more signal
Reported composite z-score is given for each of the following compounds.
Answer as a number with no unit attached.

mol_smiles	composite z-score
[N-]=[N+]=NCc1ccccc1[C@@H]1OC(c2ccc(OCCCO)cc2)=N[C@]1(CCS(=O)(=O)c1ccccc1)C(=O)N1CCOCC1	0.104
CC(C)[C@@H](C(=O)O)n1cc(C2(O)CCCCC2)nn1	-0.161
C=CCNC(=O)[C@H]1[C@@H]2C(=O)O[C@@H](c3ccccc3)[C@@H](c3ccccc3)N2[C@@H](c2ccc(OCCO)cc2)[C@]12C(=O)Nc1ccc(C#CCC(C(=O)OC)C(=O)OC)cc12	0.0022

Give a short answer stating reported composite z-score for `COc1ccc(C(=O)Nc2ccc(CN3C(=O)[C@]4(O[C@H](CC(=O)N5CCC[C@H]5CO)[C@@H]([Si](C)(C)c5ccc(OC)cc5)[C@@H]4C)c4ccccc43)cc2)cc1` . -0.0681

Where do the numbers come from? From PubChem BioAssay.
